Values were extracted from the Immune Epitope Database (IEDB).

Measurement target: HLA-A*26:01
Test method notes: IEDB peptide-MHC binding, purified MHC/direct/fluorescence; filed as Kd, often an IC50 or EC50 that approximates it; bounds were set here for any values at or beyond the usual limits of such assays
Run parameters: source organism: SARS-CoV1
Assay metric: Kd
Express the reported value numerically, then name its unit.

Req: Please indicate Kd recorded for "YIFFASFYY"
Resp: 0.527 µM

---

Measurement target: HLA-A*23:01
Test method notes: IEDB peptide-MHC binding, purified MHC/direct/fluorescence; filed as Kd, often an IC50 or EC50 that approximates it; bounds were set here for any values at or beyond the usual limits of such assays
Run parameters: source organism: Giardia lamblia ATCC 50803
Assay metric: Kd

Req: Give me measured Kd, please, for this sequence: "MTFPLHFRS"
Resp: ≥ 20 µM

---

Measurement target: HLA-A*26:02
Test method notes: IEDB peptide-MHC binding, purified MHC/direct/fluorescence; filed as Kd, often an IC50 or EC50 that approximates it; bounds were set here for any values at or beyond the usual limits of such assays
Run parameters: source organism: Influenza B virus (B/Beijing/184/93)
Assay metric: Kd

Req: Write down the reported Kd (system: HLA-A*26:02) of "TKDAERGKL"
Resp: ≥ 20 µM

---

Measurement target: HLA-A*29:02
Test method notes: IEDB peptide-MHC binding, purified MHC/competitive/radioactivity; filed as Kd, often an IC50 or EC50 that approximates it; bounds were set here for any values at or beyond the usual limits of such assays
Run parameters: source organism: Mammarenavirus machupoense
Assay metric: pKd
Bear in mind: pKd is minus log10 of a mol/L concentration; give just that figure.

Req: Give pKd for "EYFMCFKYLL" tested on HLA-A*29:02.
Resp: 7.31

---

Measurement target: HLA-A*11:01
Test method notes: IEDB peptide-MHC binding, purified MHC/direct/fluorescence; filed as Kd, often an IC50 or EC50 that approximates it; bounds were set here for any values at or beyond the usual limits of such assays
Run parameters: source organism: Edwardsiella tarda
Assay metric: Kd

Req: Output Kd of "AFGLFWLVW"
Resp: ≥ 20 µM

---

Measurement target: HLA-A*68:01
Test method notes: IEDB peptide-MHC binding, purified MHC/competitive/radioactivity; filed as Kd, often an IC50 or EC50 that approximates it; bounds were set here for any values at or beyond the usual limits of such assays
Run parameters: source organism: Dengue virus 3 Martinique/1243/1999
Assay metric: pKd
Keep it numeric: pKd is minus log10 of the concentration in mol/L.

Req: Dear colleague, please send me the reported pKd for "TTVITPMLR" when you can.
Resp: 7.93

---

Measurement target: HLA-A*24:03
Test method notes: IEDB peptide-MHC binding, purified MHC/competitive/fluorescence; filed as Kd, often an IC50 or EC50 that approximates it; bounds were set here for any values at or beyond the usual limits of such assays
Run parameters: source organism: Escherichia coli str. K-12 substr. W3110
Assay metric: Kd

Req: Give Kd for "IQFDWYPTS"
Resp: ≥ 20 µM

---

Measurement target: HLA-A*29:02
Test method notes: IEDB peptide-MHC binding, purified MHC/competitive/radioactivity; filed as Kd, often an IC50 or EC50 that approximates it; bounds were set here for any values at or beyond the usual limits of such assays
Run parameters: source organism: Lymphocytic choriomeningitis virus (strain Armstrong)
Assay metric: pKd
Note on units: pKd is unitless, being -log10 of a concentration expressed in mol/L.

Req: # return recorded pKd for input "CYSSVNDRLV"
Resp: 4.89

---

Measurement target: HLA-C*03:03
Test method notes: IEDB peptide-MHC binding, purified MHC/direct/fluorescence; filed as Kd, often an IC50 or EC50 that approximates it; bounds were set here for any values at or beyond the usual limits of such assays
Run parameters: source organism: Vibrio cholerae AM-19226
Assay metric: Kd

Req: Query Kd for "YALPSAGAF"
Resp: ≤ 1 nM

---

Measurement target: HLA-A*02:03
Test method notes: IEDB peptide-MHC binding, purified MHC/competitive/radioactivity; filed as Kd, often an IC50 or EC50 that approximates it; bounds were set here for any values at or beyond the usual limits of such assays
Run parameters: source organism: Lymphocytic choriomeningitis virus (strain Armstrong) (clone 53b)
Assay metric: pKd
Lab note — pKd values are minus log10 of concentrations in M.

Req: Assign pKd to the following record: "SLNQTVHSL"
Resp: 8.62

---

Measurement target: HLA-B*08:01
Test method notes: IEDB peptide-MHC binding, purified MHC/direct/fluorescence; filed as Kd, often an IC50 or EC50 that approximates it; bounds were set here for any values at or beyond the usual limits of such assays
Run parameters: source organism: Mycobacterium tuberculosis variant bovis BCG str. Pasteur 1173P2
Assay metric: pKd
Friendly reminder that pKd comes from taking -log10 of the concentration in mol/L.

Req: # return pKd of "HPTSRRELL" (system: HLA-B*08:01)
Resp: 5.06

---

Measurement target: HLA-B*51:01
Test method notes: IEDB peptide-MHC binding, purified MHC/competitive/fluorescence; filed as Kd, often an IC50 or EC50 that approximates it; bounds were set here for any values at or beyond the usual limits of such assays
Run parameters: source organism: Mus musculus
pKd: −log10 of the molar value.
Assay metric: pKd

Req: # return recorded pKd for entry "YTFCGTIEY"
Resp: ≤ 4.70

---

Measurement target: HLA-A*01:01
Test method notes: IEDB peptide-MHC binding, purified MHC/direct/fluorescence; filed as Kd, often an IC50 or EC50 that approximates it; bounds were set here for any values at or beyond the usual limits of such assays
Run parameters: source organism: West Nile virus
pKd: −log10 of the molar value.
Assay metric: pKd

Req: Output pKd of "VHREWFMDL"
Resp: ≤ 4.70

---

Measured pIC50 accompanies every entry in the list below.
Measurement target: HLA-B*58:01
Test method notes: IEDB peptide-MHC binding, purified MHC/competitive/fluorescence; bounds were set here for any values at or beyond the usual limits of such assays
Run parameters: source organism: Homo sapiens
pIC50: −log10 of the molar value.

> print(dat)
   residue.sequence  measurement.target  value.measured
1       KVADVDLAVPV         HLA-B*58:01          ≤ 4.70

# ---- query sequence ----
Req: Return the recorded pIC50 value; entry: "GSSDFQVHFLK"
Resp: ≤ 4.70

---

Measurement target: HLA-A*68:01
Test method notes: IEDB peptide-MHC binding, purified MHC/competitive/radioactivity; filed as Kd, often an IC50 or EC50 that approximates it; bounds were set here for any values at or beyond the usual limits of such assays
Run parameters: source organism: Hepacivirus hominis
pKd: −log10 of the molar value.
Assay metric: pKd

Req: Tell us which pKd value is on record for "HSKKKCDDL"
Resp: ≤ 4.11

---

Measurement target: HLA-B*46:01
Test method notes: IEDB peptide-MHC binding, purified MHC/direct/fluorescence; filed as Kd, often an IC50 or EC50 that approximates it; bounds were set here for any values at or beyond the usual limits of such assays
Run parameters: source organism: Vibrio cholerae V52
pKd: −log10 of the molar value.
Assay metric: pKd

Req: Let me know recorded pKd for "LPYPVLLKI" , thanks.
Resp: ≤ 4.70

---

Measurement target: HLA-C*04:01
Test method notes: IEDB peptide-MHC binding, purified MHC/competitive/fluorescence; filed as Kd, often an IC50 or EC50 that approximates it; bounds were set here for any values at or beyond the usual limits of such assays
Run parameters: source organism: Yersinia pseudotuberculosis IP 31758
Assay metric: Kd

Req: Given "RQIRMTSTI" , report its Kd on HLA-C*04:01.
Resp: ≥ 5 µM

---

Measurement target: HLA-B*18:01
Test method notes: IEDB peptide-MHC binding, purified MHC/competitive/radioactivity; filed as Kd, often an IC50 or EC50 that approximates it; bounds were set here for any values at or beyond the usual limits of such assays
Run parameters: source organism: SARS coronavirus Tor2
Assay metric: log10 of Kd (log10 of the value in µM)
Plainly stated, the numbers are log10 of Kd given in µM.

> print(dat)
   residue.sequence  measurement.target  value.measured
1         LEGSVRVVT         HLA-B*18:01            1.23
2        LEGYAFEHIV         HLA-B*18:01            0.05
3        GEENFSSRMY         HLA-B*18:01            0.60
4         NEYRQYLDA         HLA-B*18:01            0.38
5         FELCDNPFF         HLA-B*18:01           -0.68
6        KEQLQLLMPL         HLA-B*18:01           -0.74

Could you now consider this next sequence?
Req: Provide log10 of Kd value for the following sequence: "FEYISDAFSL"
Resp: 0.26
